experiment: Cytotoxicity activity against human HepG2 cells assessed by CellTiter-Glo luminescent cell viability assay.; assay type: toxicity, cell-based; parameters: assay stage confirmatory assay, source tissue liver; details: HepG2 cells, read-out: IC50 relative
Activity calls are given as the source filed them. No rule for the calls is given here.
Valid outcomes are listed here; reply with one: True for active, False for inactive

The examples below pair each entry with its known result.
O=C(Nc1ccnc2ccnn12)c1ccc2ccccc2n1	True
O=C(Nc1ccc(-c2cn3ccsc3n2)cc1)c1cccc(CO)c1	True
Cc1cc(N(C)C)nc(N2CCN(C(=O)c3ccc(C(C)(C)C)cc3)CC2)n1	True
C=CCN(C)CCCCCCOc1ccc(C(=O)c2ccc(Br)cc2)c(F)c1	True
CNC(=O)c1cccc(-c2ccc3c(N4CCOC[C@@H]4C)nc(N4CCOC[C@@H]4C)nc3n2)c1 [VISTUSERTIB]	True
c1ccc(COc2ccc3c(c2)CCNCC3)cc1	True

Task item: Hi, sorry to bother you, what did the test record for CN(C)CCNC(=O)Cn1c(Cc2ccccc2)nn(-c2ccc(Cl)cc2)c1=O ?
Reply: True

Task item: In this assay, the call recorded for CC(C)S(=O)(=O)N1CC(Oc2ccc(-c3noc(-c4ccncc4)n3)cc2)C1 was what?
Reply: False

Task item: Could you check what this test reported for CCc1nc(-c2cc(S(=O)(=O)N3CCCC(C(=O)N4CCC(C)CC4)C3)c(C)s2)no1 (centres undefined) ?
Reply: True

---

assay: Cytotoxicity activity against human HepG2 cells assessed by CellTiter-Glo luminescent cell viability assay.; format: toxicity, cell-based; design: assay stage confirmatory assay, source tissue liver; details: HepG2 cells, read-out: IC50 relative
Calls of active or inactive are those of the source. No rule for the calls is given here.
Parameter call: string, one of active, inactive

The following molecules have reported results that may help.
O=C(NCCN1CCC(n2c(=O)[nH]c3ccccc32)CC1)c1cc2cc(F)ccc2[nH]1	active
O=C(NC1CCN(CCCCC2(C(=O)NCC(F)(F)F)c3ccccc3-c3ccccc32)CC1)c1ccccc1-c1ccc(C(F)(F)F)cc1 [LOMITAPIDE]	active
Cc1cccc(C(=O)Nc2ccc(C(=O)Nc3cccnc3)cc2)n1	active

Task item: Please state the recorded outcome for this molecule: Cc1csc2nc(CN[C@H](c3ccc(Cl)cc3)C3CC3)cc(=O)n12
Reply: active

Task item: Which outcome was assigned to CC(C)(C)NS(=O)(=O)c1ccc(C(=O)Nc2ccc(Oc3cccnc3)nc2)o1 in this test?
Reply: inactive

---

assay: Cytotoxicity activity against human HepG2 cells assessed by CellTiter-Glo luminescent cell viability assay.; type: toxicity, cell-based; set-up: assay stage confirmatory assay, source tissue liver; conditions: HepG2 cells, read-out: IC50 relative
Calls of active or inactive are those of the source. How the calls were made is not given here.
metricName: CC50

Check out these entries, answers already filled in.
Cc1cnccc1NCCNC1CCN(c2ccc(F)c(F)c2)CC1	1.7 µM (active)
O=C(Nc1nnc2ccccn12)c1ccc(F)c(Cl)c1	2.7 µM (active)
O=[N+]([O-])c1ccc(O)c2ncccc12	12.4 µM (active)
COc1ccc(C)cc1CN(C)C(=O)CCN1C(=O)COc2ccccc21	5.1 µM (inactive)
Cn1nc(-c2ccc(C(F)(F)F)cc2)nc2c(=O)n(C)c(=O)nc1-2	1.1 µM (active)

Task item: Can you share its CC50? I mean this compound: Nc1ccc2c(c1)C(=O)C(=O)c1ccccc1-2
Reply: 4.2 µM (active)

Task item: For CCN(c1ccc(C(=O)Nc2ccccc2O)cc1)C(C)C , what is its reported CC50?
Reply: 11.9 µM (active)

Task item: # input compound: NC(=O)c1coc(-c2csc(-c3ccccc3O)n2)c1 ; wanted: its CC50
Reply: 2.5 µM (active)

These entries and their values trace back to ChEMBL document CHEMBL5303711.
